Cited source for all entries: patent US10947213B1

- studySystem: TLR7/NFKb HEK cells (Homo sapiens)
- Sequence (Q9NYK1 27-1049): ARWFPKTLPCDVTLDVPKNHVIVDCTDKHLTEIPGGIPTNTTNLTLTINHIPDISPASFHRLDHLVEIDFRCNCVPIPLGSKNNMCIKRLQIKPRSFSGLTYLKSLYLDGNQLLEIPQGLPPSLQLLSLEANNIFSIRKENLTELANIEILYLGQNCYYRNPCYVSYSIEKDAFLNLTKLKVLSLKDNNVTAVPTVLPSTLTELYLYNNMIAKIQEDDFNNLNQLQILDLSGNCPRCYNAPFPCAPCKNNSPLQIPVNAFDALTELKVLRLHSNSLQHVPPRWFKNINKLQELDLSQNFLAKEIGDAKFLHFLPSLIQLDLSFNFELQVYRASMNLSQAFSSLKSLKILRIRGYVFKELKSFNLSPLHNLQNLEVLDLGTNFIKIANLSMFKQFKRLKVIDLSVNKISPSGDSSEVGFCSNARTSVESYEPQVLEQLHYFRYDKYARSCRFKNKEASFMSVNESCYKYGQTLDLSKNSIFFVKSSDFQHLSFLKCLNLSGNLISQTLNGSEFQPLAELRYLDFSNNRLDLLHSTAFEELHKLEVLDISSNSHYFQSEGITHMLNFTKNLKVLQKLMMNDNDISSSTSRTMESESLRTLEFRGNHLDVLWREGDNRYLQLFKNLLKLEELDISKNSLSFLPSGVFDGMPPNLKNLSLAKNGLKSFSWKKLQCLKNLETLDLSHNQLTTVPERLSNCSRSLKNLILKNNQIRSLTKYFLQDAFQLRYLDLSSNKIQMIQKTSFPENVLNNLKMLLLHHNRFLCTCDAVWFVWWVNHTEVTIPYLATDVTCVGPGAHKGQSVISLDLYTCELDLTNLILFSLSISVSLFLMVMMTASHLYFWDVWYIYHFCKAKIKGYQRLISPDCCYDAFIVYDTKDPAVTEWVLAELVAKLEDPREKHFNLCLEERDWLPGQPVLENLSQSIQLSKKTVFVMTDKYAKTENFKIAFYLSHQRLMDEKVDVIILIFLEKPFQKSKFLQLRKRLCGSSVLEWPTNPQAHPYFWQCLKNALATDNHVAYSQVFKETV
- measurementDescription: HEK Cell Assay (TLR7/NFKb reporter, Steady-Glo luciferase readout)
- measurementContext: 30 min compound preincubation, then R*48 agonist for 5 hours, read-out: Potency
pIC50: −log10 of the molar value.
measurementType: pIC50

Here's what some known entries look like.
                                   compound                         studysystem        result
0  C[C@H]1C[C@@H](NC(C)(C)CO)CN(c2ccc(C(F)(F)F)c3ncccc23)C1 [Compound 242]  TLR7/NFKb HEK cells (Homo sapiens)  5.00 to 6.00
1  C[C@H]1C[C@@H](NC(=O)CC2(O)CCCCC2)CN(c2ccc(C(F)(F)F)c3ncccc23)C1 [Compound 484]  TLR7/NFKb HEK cells (Homo sapiens)        > 6.00
2  CC(C(=O)N[C@@H]1C[C@H](C)CN(c2ccc(C(F)(F)F)c3nccnc23)C1)N1CC(N)C1 (single isomer, unassigned) [Compound 370]  TLR7/NFKb HEK cells (Homo sapiens)        > 6.00
3  C[C@H]1C[C@@H](NC(=O)CC2CNC2)CN(c2ccc(C(F)(F)F)c3nccnc23)C1 [Compound 300]  TLR7/NFKb HEK cells (Homo sapiens)        > 6.00

API: the following record is the query input.
stdin: // pIC50 lookup, key: C[C@H]1C[C@@H](NC(=O)C(C)(C)C2CCN(C)CC2)CN(c2ccc(C#N)c3nccnc23)C1 [Compound 349]
stdout: > 6.00

###

- studySystem: TLR7/NFKb HEK cells (Homo sapiens)
- Sequence (Q9NYK1 27-1049): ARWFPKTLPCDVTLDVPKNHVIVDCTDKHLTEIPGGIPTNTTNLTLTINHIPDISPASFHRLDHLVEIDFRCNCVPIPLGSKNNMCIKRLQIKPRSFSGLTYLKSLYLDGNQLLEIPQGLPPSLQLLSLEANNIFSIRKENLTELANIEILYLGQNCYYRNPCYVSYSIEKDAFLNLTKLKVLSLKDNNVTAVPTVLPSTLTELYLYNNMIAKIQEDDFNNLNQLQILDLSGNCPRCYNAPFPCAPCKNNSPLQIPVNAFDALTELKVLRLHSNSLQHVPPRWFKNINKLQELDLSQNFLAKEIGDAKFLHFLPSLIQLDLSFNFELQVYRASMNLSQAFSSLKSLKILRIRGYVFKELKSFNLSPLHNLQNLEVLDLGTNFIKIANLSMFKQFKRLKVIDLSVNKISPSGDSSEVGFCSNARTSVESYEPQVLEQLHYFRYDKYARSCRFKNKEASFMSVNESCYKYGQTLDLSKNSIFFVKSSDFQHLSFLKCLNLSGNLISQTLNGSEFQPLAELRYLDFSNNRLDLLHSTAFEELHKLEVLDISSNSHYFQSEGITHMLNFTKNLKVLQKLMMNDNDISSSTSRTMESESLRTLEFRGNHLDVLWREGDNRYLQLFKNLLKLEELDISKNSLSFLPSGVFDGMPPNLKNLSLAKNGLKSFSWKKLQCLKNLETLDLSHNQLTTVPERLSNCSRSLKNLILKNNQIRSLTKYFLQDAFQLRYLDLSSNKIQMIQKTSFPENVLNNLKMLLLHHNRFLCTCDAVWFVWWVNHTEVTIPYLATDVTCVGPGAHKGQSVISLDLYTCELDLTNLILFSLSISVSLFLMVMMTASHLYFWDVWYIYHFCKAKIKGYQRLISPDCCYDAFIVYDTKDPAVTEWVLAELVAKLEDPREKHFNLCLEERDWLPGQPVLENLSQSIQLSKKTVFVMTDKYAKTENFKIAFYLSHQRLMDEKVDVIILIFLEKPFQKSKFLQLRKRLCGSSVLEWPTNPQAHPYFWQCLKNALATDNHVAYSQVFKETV
- measurementDescription: HEK Cell Assay (TLR7/NFKb reporter, Steady-Glo luciferase readout)
- measurementContext: 30 min compound preincubation, then R*48 agonist for 5 hours, read-out: Potency
measurementType: IC50

>>> print(df.to_string())
                                   compound     result
0  CN1CCN(CC(=O)NC2CN(c3ccc(C(F)(F)F)c4ncccc34)CC(F)(F)C2)CC1 (stereo not shown) [Compound 511]  < 1000 nM
1  C[C@H]1C[C@@H](NC(=O)C(C)(C)C2CCN(C)CC2)CN(c2ccc(C(F)(F)F)c3ncccc23)C1 [Compound 351]  < 1000 nM
2  N[C@H]1C[C@@H](C2CC2)CN(c2ccc(C(F)(F)F)c3ncccc23)C1 (relative stereo) [Compound 331]  < 1000 nM

API: the following record is the query input.
stdin: // IC50 lookup, key: C[C@@H]1CN(c2ccnc3nccnc23)C[C@H](CN2CCNCC2)O1 [Compound 48]
stdout: 1000 to 10000 nM

###

- studySystem: TLR7/NFKb HEK cells (Homo sapiens, UniProt Q9NYK1)
- measurementDescription: HEK Cell Assay (TLR7/NFKb reporter, Steady-Glo luciferase readout)
- measurementContext: 30 min compound preincubation, then R*48 agonist for 5 hours, read-out: Potency
pIC50: −log10 of the molar value.
measurementType: pIC50

Here's what some known entries look like.
>>> print(df.to_string())
                                   molecule        result
0  CN1CCN(CC(=O)NC2CN(c3ccc(C#N)c4nccnc34)CC(F)(F)C2)CC1 (stereo not shown)        > 6.00
1  C[C@@H]1CN(c2ccc(C#N)c3nccnc23)C[C@H](C(=O)NC2CCN(C)CC2)O1        > 6.00
2  N#Cc1ccc(N2CC(N)CC(C(F)(F)F)C2)c2cccnc12 (single isomer, unassigned) [Compound 73]        > 6.00
3  NC1CN(c2ccc(C(F)(F)F)c3ncccc23)CC(F)(F)C1 (single isomer, unassigned) [Compound 528]  5.00 to 6.00
4  C[C@H]1C[C@@H](NC(=O)[C@H](N)CO)CN(c2ccnc3nccnc23)C1        < 5.00
5  C[C@H]1C[C@@H](NC(=O)NC2CC2)CN(c2ccc(C(F)(F)F)c3ncccc23)C1        > 6.00

stdin: // pIC50 lookup, key: CCN(CC)CCNC(=O)C1CCN(c2ccc(C#N)c3nccnc23)CC1
stdout: > 6.00

stdin: Another molecule to look at: N#Cc1ccc(N2CC(NC(=O)CC3(O)CCCCC3)CC(C(F)(F)F)C2)c2cccnc12 (racemic)
stdout: > 6.00

stdin: Another molecule to look at: C[C@H]1C[C@@H](NC(=O)CC(C)(C)C)CN(c2ccnc3nccnc23)C1
stdout: 5.00 to 6.00

stdin: Another molecule to look at: C[C@@H]1CN(c2ccnc3nccnc23)C[C@H](C(=O)NC2CCN(C)CC2)O1
stdout: > 6.00
